Reported AC50 values for the following molecules.
target: Cytochrome P450 2C9 (Homo sapiens); test: Cytochrome panel assay with activity outcomes; conditions: recombinant CYP, pro-luciferin dealkylation, luminescence, p450-cyp2c9; series mostly up to 57.1 µM
Among all 16,000 compounds or so, about 4,000 (25%) were called active. Another 26% or so got no clear call; they are omitted. These entries were drawn from the full list.
Metric: AC50

Molecule: CC(C)CCn1c(N)c(C(=O)NCc2cccs2)c2nc3ccccc3nc21
Target system: Cytochrome P450 2C9 (Homo sapiens)
Metric: AC50
Measured value: 10 µM (active)
//
Molecule: CC(C)(C)CC(=O)NC(=S)Nc1ccccc1C(F)(F)F
Target system: Cytochrome P450 2C9 (Homo sapiens)
Metric: AC50
Measured value: 2.51 µM (active)
//
Molecule: O=[N+]([O-])c1ccc(S(=O)(=O)Cc2ccccc2)c([N+](=O)[O-])c1
Target system: Cytochrome P450 2C9 (Homo sapiens)
Metric: AC50
Measured value: 3.16 µM (active)
//
Molecule: CCCCN1C(=O)/C(=C\c2ccco2)C(=O)N(CCc2ccccc2)C1=O
Target system: Cytochrome P450 2C9 (Homo sapiens)
Metric: AC50
Measured value: 7.94 µM (active)
//
Molecule: CN1C(=O)C(=Cc2ccccc2Oc2ccc(Cl)c(F)c2)C(=O)N(C)C1=O
Target system: Cytochrome P450 2C9 (Homo sapiens)
Metric: AC50
Measured value: 6.31 µM (active)
//
Molecule: CC(C)CNC(=S)NC1CC2CCCC(C1)N2Cc1ccco1 (stereo unspecified)
Target system: Cytochrome P450 2C9 (Homo sapiens)
Metric: AC50
Measured value: 2.82 µM (active)
//
Molecule: COCCCn1c(N)c(C(=O)Nc2sc3c(c2C(=O)OC)CCCC3)c2nc3ccccc3nc21
Target system: Cytochrome P450 2C9 (Homo sapiens)
Metric: AC50
Measured value: 2.24 µM (active)
//
Molecule: CCCc1nc2ccccc2c(=O)n1-c1ccc(OC)cc1
Target system: Cytochrome P450 2C9 (Homo sapiens)
Metric: AC50
Measured value: 25.1 µM (active)
//
Molecule: CCC1C(=O)OCC1Cc1cncn1C (stereo unspecified)
Target system: Cytochrome P450 2C9 (Homo sapiens)
Metric: AC50
Measured value: 15.8 µM (active)
//
Molecule: O=C(CNS(=O)(=O)c1ccc(Br)s1)N1CCC2(CC1)OCCO2
Target system: Cytochrome P450 2C9 (Homo sapiens)
Metric: AC50
Measured value: 11.2 µM (active)
//
Molecule: CCCCn1c(N)c(C(=O)NCc2cccs2)c2nc3ccccc3nc21
Target system: Cytochrome P450 2C9 (Homo sapiens)
Metric: AC50
Measured value: 14.1 µM (active)
